Origin of measurements: the supplement of paper PMC11061612

- System: HCC2998 (Colorectal Carcinoma);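 note: after 72 h of two-drug dosing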
- Assay summary: Bliss excess, mean over the matrix (fraction); higher = more synergy
Assign class by Bliss excess: not lower than -0.03 means TRUE; lower than -0.03 means FALSE.

Reference set, count: 4
Compound	Qualitative label
Cc1c2c(nn1C)CSCc1cc(n(C)n1)CSc1cc(c3ccccc3c1)OCCCc1c(C(=O)O)n(C)c3c-2c(Cl)ccc13 [AZD5991] + Cc1cc2ncnn2cc1Nc1ncc2c(n1)n(C1CCOCC1)c(=O)n2C [AZD7648] (first compound max 1 µM, 7x7, partner max 10 µM)	FALSE
CCN(CCO)CCCOc1ccc2c(Nc3cc(CC(=O)Nc4cccc(F)c4)[nH]n3)ncnc2c1 [AZD2811] + C[C@@H]1COCCN1C2=NC(=NC(=C2)C3(CC3)[S@](=N)(=O)C)C4=C5C=CNC5=NC=C4 [AZD6738] (first compound max 1 µM, 7x7, partner max 10 µM)	FALSE
CN(C)CCCOc1ccc(-c2ccc3ncc4c(c3c2)n(C2CCOCC2)c(=O)n4C)cn1 [AZD0156] + CCN(CCO)CCCOc1ccc2c(Nc3cc(CC(=O)Nc4cccc(F)c4)[nH]n3)ncnc2c1 [AZD2811] (first compound max 1 µM, 7x7, partner max 1 µM)	TRUE
CC1(C)CCC(CN2CCN(c3ccc(C(=O)NS(=O)(=O)c4ccc(NCC5CCOCC5)c([N+](=O)[O-])c4)c(Oc4cnc5[nH]ccc5c4)c3)CC2)=C(c2ccc(Cl)cc2)C1 [Venetoclax] + COc1cc(Nc2ncc3c(n2)-c2ccc(Cl)cc2C(c2c(F)cccc2OC)=NC3)ccc1C(=O)O [Alisertib] (first compound max 1 µM, 7x7, partner max 10 µM)	TRUE

Request: Hi, just wondering whether Cc1nc(Nc2ncc(C(=O)Nc3c(C)cccc3Cl)s2)cc(N2CCN(CCO)CC2)n1 [Dasatinib] + CC(=O)Nc1cccc(-n2c(=O)n(C3CC3)c(=O)c3c(Nc4ccc(I)cc4F)n(C)c(=O)c(C)c32)c1 [Trametinib] (first compound max 2 µM, 7x7, partner max 1 µM) shows Bliss excess of -0.03 or higher.
Response: TRUE

Request: Same question, NC1(C(=O)N[C@@H](CCO)c2ccc(Cl)cc2)CCN(c2ncnc3[nH]ccc23)CC1 [Capivasertib] + C[C@@H]1COCCN1C2=NC(=NC(=C2)C3(CC3)[S@](=N)(=O)C)C4=C5C=CNC5=NC=C4 [AZD6738] (first compound max 10 µM, 7x7, partner max 10 µM) this time
Response: FALSE

Request: Then CN(C)CCCOc1ccc(-c2ccc3ncc4c(c3c2)n(C2CCOCC2)c(=O)n4C)cn1 [AZD0156] + C=CCn1c(=O)c2cnc(Nc3ccc(N4CCN(C)CC4)cc3)nc2n1-c1cccc(C(C)(C)O)n1 [AZD1775] (first compound max 1 µM, partner max 1 µM) ?
Response: TRUE
